The variants listed here are annotated with their enrichment.
B1: NF2 (merlin) isoform 7, human, full length (507 aa, lacks exons 2-3 = isoform-1 residues 39-121; exon-16 C-terminus), P35240-4 (parent)
chain: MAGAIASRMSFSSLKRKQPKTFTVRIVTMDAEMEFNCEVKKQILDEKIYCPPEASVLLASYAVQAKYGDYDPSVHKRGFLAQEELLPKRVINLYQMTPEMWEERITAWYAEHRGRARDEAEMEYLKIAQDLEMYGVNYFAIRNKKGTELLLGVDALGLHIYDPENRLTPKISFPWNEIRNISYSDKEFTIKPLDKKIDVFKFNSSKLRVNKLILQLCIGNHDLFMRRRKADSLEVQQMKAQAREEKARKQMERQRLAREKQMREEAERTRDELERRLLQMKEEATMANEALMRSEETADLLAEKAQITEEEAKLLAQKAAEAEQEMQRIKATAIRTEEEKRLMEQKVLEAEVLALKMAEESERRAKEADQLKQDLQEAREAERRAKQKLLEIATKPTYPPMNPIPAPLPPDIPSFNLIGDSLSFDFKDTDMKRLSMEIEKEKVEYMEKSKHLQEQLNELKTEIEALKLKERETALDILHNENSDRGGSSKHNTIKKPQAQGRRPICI

Variants of: B1
EXPERIMENT_SUMMARY: reverse yeast two-hybrid deep mutational scan (rY2H-seq): NF2 isoform 7 mutant library as bait mated with wild-type prey strains; selection on medium lacking adenine for non-interacting pairs; NextSeq paired-end sequencing; enrichment vs …
ASSAY_CONDITIONS: with EMILIN1 (elastin microfibril interfacer 1), Q9Y6C2; yeast diploids after mating (RBait_S3 x RPrey_S3), 30 °C, selection for reporter genes on NB agar; human ABL2 co-expressed as the kinase-dead K35M mutant …; HIGHER = WEAKER BINDING (the opposite of display enrichments): higher = stronger loss of interaction: reverse Y2H selects yeast in which bait and prey do NOT interact (growth without adenine), so a …; hits-only table; scale: rY2H score; numbering: uniprot, sequence starts at 1
Give only the figure.

Below, each entry is followed by its recorded enrichment result.
{"columns": ["MUTATION", "enrichment"],
 "data": [
  ["R263T", 1.89],
  ["Q82A", 4.41],
  ["M401W", 2.39],
  ["G419K", 1.49],
  ["R104E", 3.93],
  ["K318L", 2.66]
]}

Let's switch to this variant now.
Dear colleague, I am looking for the recorded enrichment of the following variant: "R263K" 2.14
